Listing of entries alongside the reported GI50.
Tested on: SNB-19 CNS
EXPERIMENTAL_PROTOCOL: NCI tumour cell line growth inhibition, 48 h
MEASURED_QUANTITY: GI50

> print(dat)
                                   compound  system.tested  observed.value
1  COc1ccc(-c2nc(-c3nc4ccc(F)cc4[nH]3)c3ccccn23)cc1     SNB-19 CNS         11.2 µM
2  Cc1cc(O)c(C2=NN(c3ccc(S(N)(=O)=O)cc3)C(c3ccc(Cl)cc3)C2)c(C)c1Cl (stereo not drawn)     SNB-19 CNS         12.4 µM
3  COC(=O)COc1ccc(/C=C2/N=C(c3ccccc3)N(c3c(C)n(C)n(-c4ccccc4)c3=O)C2=O)cc1     SNB-19 CNS         36.3 µM
4  Cc1c(-c2ccnc(N)n2)c2c(n1Cc1ccccc1)C(=O)c1ccccc1C2=O     SNB-19 CNS         18.1 µM
5  CCCCCCCCNCCC[C@@H](C)[C@H]1CC[C@H]2[C@@H]3[C@H](OCCCN)C[C@H]4C[C@H](OCCCN)CC[C@]4(C)[C@H]3C[C@H](OCCCN)[C@]12C     SNB-19 CNS         1.69 µM
6  O=C(NCCc1ccccn1)OCc1nc2nc(Cl)nc(N3CCOCC3)c2[nH]1     SNB-19 CNS         4.58 µM
7  COc1ncnc(S(=O)(=O)c2ccc(N=C3C(=O)N(CN4CCN(c5cc6c(cc5F)c(=O)c(C(=O)O)cn6C5CC5)CC4)c4ccc(Cl)cc43)cc2)c1OC     SNB-19 CNS         > 50 µM
8  CCN=C1C=CC(=C(c2ccc(N(CC)CC)cc2)c2ccc(N(CC)CC)cc2)c2ccccc21     SNB-19 CNS       0.0504 µM

Ref: PubChem BioAssay (NCI)
